Biological target: GATA4–NKX2-5 transcriptional synergy (Mus musculus, UniProt P42582+Q08369)
Construct: expressed in transfected cells; host or cells: COS-1
Sequence (Q08369 whole entry): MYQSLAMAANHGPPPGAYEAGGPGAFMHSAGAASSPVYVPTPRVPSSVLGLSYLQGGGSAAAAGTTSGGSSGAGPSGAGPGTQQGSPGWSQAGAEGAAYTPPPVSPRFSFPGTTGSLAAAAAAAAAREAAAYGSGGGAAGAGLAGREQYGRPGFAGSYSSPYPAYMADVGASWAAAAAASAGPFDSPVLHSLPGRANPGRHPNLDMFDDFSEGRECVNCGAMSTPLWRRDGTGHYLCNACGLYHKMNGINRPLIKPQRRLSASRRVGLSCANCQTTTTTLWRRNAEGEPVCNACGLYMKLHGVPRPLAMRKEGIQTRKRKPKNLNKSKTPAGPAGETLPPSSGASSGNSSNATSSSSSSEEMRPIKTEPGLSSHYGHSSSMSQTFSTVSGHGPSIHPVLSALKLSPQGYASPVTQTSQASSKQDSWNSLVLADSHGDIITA
Sequence (P42582 whole entry): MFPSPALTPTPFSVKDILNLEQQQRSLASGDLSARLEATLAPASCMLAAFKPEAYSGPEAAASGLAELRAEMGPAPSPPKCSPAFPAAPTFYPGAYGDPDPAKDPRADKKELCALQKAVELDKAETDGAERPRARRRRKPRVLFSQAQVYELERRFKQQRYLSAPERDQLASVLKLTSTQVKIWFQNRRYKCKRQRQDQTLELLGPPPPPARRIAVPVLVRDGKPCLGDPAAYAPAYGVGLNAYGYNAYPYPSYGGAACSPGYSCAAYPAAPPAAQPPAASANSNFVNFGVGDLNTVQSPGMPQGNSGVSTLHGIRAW
Test: GATA4–NKX2-5 transcriptional synergy luciferase reporter assay (3xNKE reporter, COS-1 cells)
Type: cell-based
Settings: 10 µM compound; GATA4–NKX2-5 transcriptional synergy reporter, COS-1 cells
Would you kindly list activity at 10 µM for each of these compounds?
Numbers only, in %.

// worked examples, activity at 10 µM included
COMPOUND: CCN(CC)c1ccc(NC(=O)c2c(-c3ccoc3)noc2C)cc1 [Compound 39n]
READING_UNIT: %
activity at 10 µM: 105
//
COMPOUND: CCN(CC)c1ccc(NCc2c[nH]nc2-c2cccs2)cc1
READING_UNIT: %
activity at 10 µM: 103
//
COMPOUND: Cc1onc(-c2ccccc2)c1C(=O)Nc1ccc2c(c1)C(=O)CC(C)(C)O2
READING_UNIT: %
activity at 10 µM: 106
//
COMPOUND: O=C(Nc1ccc2oc(-c3ccccc3)cc(=O)c2c1)c1c[nH]nc1-c1ccccc1
READING_UNIT: %
activity at 10 µM: 71.2
//
COMPOUND: Cc1cc(-c2onc(C)c2C(=O)Nc2ccc3oc(-c4ccccc4)cc(=O)c3c2)no1
READING_UNIT: %
activity at 10 µM: 114

Batch request: activity at 10 µM for each of the following compounds.
1. Cc1cc(NC(=O)c2cnn(C)c2-c2ccccc2)ccc1C(C)C
2. CCN(c1ccc(NC(=O)c2c(C)noc2-c2cc(C)on2)cc1)C(C)C

Response:
1. 68.4
2. 96.6

I need activity at 10 µM for every entry listed below, if you could help.
1. CCN(CC)c1ccc(NCc2c[nH]nc2C2CCCCC2)cc1
2. CCN(CC)c1ccc(NC(=O)c2c(-c3ccc(-c4ccc(F)cc4)cc3)noc2C)cc1 [Compound 39j]

Response:
[82.1, 114]

###

Tested on: COS-1 cells
Assay: MTT assay (cell viability)
Assay type: cell-based
Conditions: 30 µM; cell viability
Label key: true (1) means MTT.30µM under 70; false (0) means MTT.30µM of 70 or more.

Example cases with answers are listed next.
COMPOUND: CCN(CC)c1ccc(NC(=O)c2csc(C)c2-c2ccccc2)cc1 [Compound 47t]
SYSTEM_NAME: COS-1 cells
ANSWER_LABEL: false (0)

COMPOUND: COc1ccc(-c2cc(N)nn2C(=O)c2c(-c3ccccc3)noc2C)cc1
SYSTEM_NAME: COS-1 cells
ANSWER_LABEL: false (0)

COMPOUND: CC(=O)N(Cc1ccc(N(C)C)cc1)c1c(-c2ccccc2)noc1C
SYSTEM_NAME: COS-1 cells
ANSWER_LABEL: true (1)

Prompt: For `CCC(=O)N(Cc1ccc(N(CC)CC)cc1)c1c(-c2ccccc2)noc1C` , is the recorded MTT.30µM below the cut-off of 70?
Response: true (1)

Prompt: Does the reported MTT.30µM of CCN(CC)c1ccc(NC(=O)c2cnc3ncccn23)cc1 [Compound 47aa] stay below 70?
Response: false (0)

###

Molecular target: GATA4 transcriptional activity (Mus musculus, UniProt Q08369)
Construct: expressed in transfected cells; host or cells: COS-1
Test: GATA4 luciferase reporter assay (tandem GATA-site reporter, COS-1 cells)
Assay type: cell-based
Details: COS-1; compound 10 µM; luciferase reporter activity; spread in separate STDEV column
Exercise: state measured activity at 10 µM for each of the molecules provided.
I'd appreciate it if you included the unit after the number.

Items follow; give activity at 10 µM for each.
1. COc1ccc(-c2cc(NCc3ccc(N(C)C)cc3)n[nH]2)cc1 [SI92]
2. Cc1onc(-c2ccccc2)c1C(=O)Nc1nc(C(C)(C)C)cs1 [Compound 4k]

Response:
["72.4%", "114%"]
